- Tgt: PI3Kβ (Homo sapiens (Human), UniProt P42338)
- Sequence (P42338 whole entry): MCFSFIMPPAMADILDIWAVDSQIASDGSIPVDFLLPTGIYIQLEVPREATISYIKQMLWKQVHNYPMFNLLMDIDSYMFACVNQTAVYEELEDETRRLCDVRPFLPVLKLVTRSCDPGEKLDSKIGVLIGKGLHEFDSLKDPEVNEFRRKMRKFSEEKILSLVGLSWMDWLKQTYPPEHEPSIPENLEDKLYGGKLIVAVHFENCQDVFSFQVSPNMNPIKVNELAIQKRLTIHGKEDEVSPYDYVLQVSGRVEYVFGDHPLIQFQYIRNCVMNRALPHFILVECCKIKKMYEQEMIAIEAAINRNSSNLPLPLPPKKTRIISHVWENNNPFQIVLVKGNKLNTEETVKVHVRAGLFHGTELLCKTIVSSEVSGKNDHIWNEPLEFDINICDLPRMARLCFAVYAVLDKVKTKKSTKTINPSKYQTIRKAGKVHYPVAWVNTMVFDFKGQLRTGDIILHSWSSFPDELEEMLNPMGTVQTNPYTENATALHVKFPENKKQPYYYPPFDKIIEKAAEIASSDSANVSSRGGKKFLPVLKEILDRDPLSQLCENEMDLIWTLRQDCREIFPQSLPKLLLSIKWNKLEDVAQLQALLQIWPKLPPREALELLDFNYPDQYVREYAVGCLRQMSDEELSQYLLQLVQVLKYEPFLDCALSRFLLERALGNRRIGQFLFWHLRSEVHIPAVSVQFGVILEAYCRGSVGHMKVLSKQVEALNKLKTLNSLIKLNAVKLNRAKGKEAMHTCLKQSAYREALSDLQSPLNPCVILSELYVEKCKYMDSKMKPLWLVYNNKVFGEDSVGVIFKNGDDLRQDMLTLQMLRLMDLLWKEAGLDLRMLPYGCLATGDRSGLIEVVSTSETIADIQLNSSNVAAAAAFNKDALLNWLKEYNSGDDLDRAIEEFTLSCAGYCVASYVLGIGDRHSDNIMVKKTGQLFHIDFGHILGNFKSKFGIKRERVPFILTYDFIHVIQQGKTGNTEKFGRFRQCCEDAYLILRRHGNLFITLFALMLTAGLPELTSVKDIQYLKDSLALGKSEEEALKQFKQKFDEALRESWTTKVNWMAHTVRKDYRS
- Sequence (P27986 whole entry partner): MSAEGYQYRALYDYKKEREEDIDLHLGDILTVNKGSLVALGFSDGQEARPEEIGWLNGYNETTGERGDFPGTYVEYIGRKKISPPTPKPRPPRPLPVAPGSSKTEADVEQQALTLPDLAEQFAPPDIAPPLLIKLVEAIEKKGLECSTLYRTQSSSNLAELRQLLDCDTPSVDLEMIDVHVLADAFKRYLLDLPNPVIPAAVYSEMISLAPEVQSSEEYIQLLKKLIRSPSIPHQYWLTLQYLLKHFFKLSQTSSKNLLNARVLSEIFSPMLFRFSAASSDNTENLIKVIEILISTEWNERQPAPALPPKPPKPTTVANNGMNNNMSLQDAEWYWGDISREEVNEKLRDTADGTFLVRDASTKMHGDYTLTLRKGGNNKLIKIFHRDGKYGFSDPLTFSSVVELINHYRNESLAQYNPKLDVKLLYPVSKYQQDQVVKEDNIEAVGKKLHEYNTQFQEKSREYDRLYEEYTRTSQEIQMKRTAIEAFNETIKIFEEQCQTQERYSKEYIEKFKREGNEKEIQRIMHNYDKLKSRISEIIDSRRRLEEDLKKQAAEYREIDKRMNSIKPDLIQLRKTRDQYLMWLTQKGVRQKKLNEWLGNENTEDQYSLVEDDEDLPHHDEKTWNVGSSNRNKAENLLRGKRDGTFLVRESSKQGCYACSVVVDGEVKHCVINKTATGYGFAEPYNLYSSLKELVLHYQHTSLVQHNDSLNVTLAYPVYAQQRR
pIC50: −log10 of the molar value.
Could you label it criterion met if measured pIC50 is 8 or higher, and criterion not met otherwise?

Compound	Tgt	Cat
CCc1nc2c(-c3nnc[nH]3)cc(-c3ccnc(N)c3F)cc2n1-c1ccnc2c(F)ccc(F)c12 (single isomer, unassigned) [Example 110]	PI3Kβ (Homo sapiens (Human), UniProt P42338)	criterion met
Cc1nc2c(C(=O)O)cc(-c3ccncc3)cc2n1-c1ccnc2c(Cl)cccc12	PI3Kβ (Homo sapiens (Human), UniProt P42338)	criterion not met
Cc1nnc(-c2cc(-c3ccnc(N)c3)cc3c2nc(C)n3-c2ccnc3c(Cl)cccc23)[nH]1	PI3Kβ (Homo sapiens (Human), UniProt P42338)	criterion not met
NC(=O)c1cc(-c2ccncc2)cc2c1nc(C1COC1)n2-c1ccnc2c(Cl)cccc12	PI3Kβ (Homo sapiens (Human), UniProt P42338)	criterion not met
Cc1nc2c(-c3nnc[nH]3)cc(-c3ccnc(C#N)c3)cc2n1-c1ccnc2cccc(F)c12 [Example 147]	PI3Kβ (Homo sapiens (Human), UniProt P42338)	criterion met

----------
- Tgt: PI3Kβ (Homo sapiens (Human))
In plain terms, low IC50, meaning strictly below 30 nM, gives True, and everything else gives False.

Compound	Tgt	Cat
Nc1nccc(-c2cc(-c3nnc[nH]3)c3ncn(-c4ccnc5c(F)ccc(F)c45)c3c2)c1F	PI3Kβ (Homo sapiens (Human))	True
Cc1nc2c(C(N)=O)cc(-c3cc(N)ncn3)cc2n1-c1ccnc2c(Cl)cccc12	PI3Kβ (Homo sapiens (Human))	False
Cc1nnc(-c2cc(-c3ccnc(N)c3)cc3c2nc(C)n3-c2ccnc3c(Cl)ccc(F)c23)[nH]1	PI3Kβ (Homo sapiens (Human))	True
Cc1nc2c(-c3nnc[nH]3)cc(-c3ccncc3)cc2n1-c1ccnc2c(F)ccc(F)c12 (atropisomer, axis not shown) [Example 139]	PI3Kβ (Homo sapiens (Human))	True
Cc1nc2c(-c3nnc[nH]3)cc(-c3ccnc(N)c3F)cc2n1-c1ccnc2c(F)ccc(F)c12 (single isomer, unassigned) [Example 105]	PI3Kβ (Homo sapiens (Human))	False
Cc1nc2c(-c3nnc[nH]3)cc(-c3cc(F)ncc3F)cc2n1-c1ccnc2c(F)ccc(F)c12	PI3Kβ (Homo sapiens (Human))	True

----------
The entries below come with measured pIC50 values attached.
- Tgt: PI3Kβ (Homo sapiens (Human), UniProt P42338)
pIC50: −log10 of the molar value.
Result Type: pIC50

Molecule	Tgt	Measured Result
Cc1cc(-n2c(C)nc3c(-c4nnc[nH]4)cc(-c4ccncc4)cc32)c2cccc(Cl)c2n1	PI3Kβ (Homo sapiens (Human), UniProt P42338)	8.22
Cc1nc2c(-c3nnc[nH]3)cc(-c3ccnc(C#N)c3)cc2n1-c1ccnc2c(Cl)ccc(F)c12	PI3Kβ (Homo sapiens (Human), UniProt P42338)	8.15
Cc1nc2c(C(N)=O)cc(-c3ncnc(N)c3C#N)cc2n1-c1ccnc2c(F)ccc(F)c12	PI3Kβ (Homo sapiens (Human), UniProt P42338)	6.34
Cc1nc2c(-c3nnc[nH]3)cc(-c3ccnc(N)c3F)cc2n1-c1ccnc2c(Cl)ccc(Cl)c12 [Example 161]	PI3Kβ (Homo sapiens (Human), UniProt P42338)	8.22
Cc1nc2c(-c3nnc[nH]3)cc(-c3ccnc(F)c3F)cc2n1-c1ccnc2c(F)ccc(F)c12	PI3Kβ (Homo sapiens (Human), UniProt P42338)	8.00
Cc1nc2c(-c3nnc[nH]3)cc(-c3ccnc(C#N)c3)cc2n1-c1ccnc2c(F)cccc12	PI3Kβ (Homo sapiens (Human), UniProt P42338)	7.80
Nc1nccc(-c2cc(-c3nnc[nH]3)c3nc(C4CC4)n(-c4ccnc5c(F)cccc45)c3c2)c1F	PI3Kβ (Homo sapiens (Human), UniProt P42338)	6.96
Cc1nc2c(-c3nnc[nH]3)cc(-c3ccnc(N)c3)cc2n1-c1ccnc2c(F)cccc12	PI3Kβ (Homo sapiens (Human), UniProt P42338)	7.46
CCc1nc2c(-c3nnc[nH]3)cc(-c3ccnc(N)c3)cc2n1-c1ccnc2cc(F)ccc12	PI3Kβ (Homo sapiens (Human), UniProt P42338)	6.48
Cc1nc2c(-c3nnc[nH]3)cc(-c3ccnc(N)c3F)cc2n1-c1ccnc2c(Cl)ccc(Cl)c12 (single isomer, unassigned) [Example 120]	PI3Kβ (Homo sapiens (Human), UniProt P42338)	8.40
Nc1nccc(-c2ccc3ncn(-c4cc(N5CCNCC5)nc5ccccc45)c3c2)c1F	PI3Kβ (Homo sapiens (Human), UniProt P42338)	6.92
N#Cc1cc(-c2cc(-c3nnc[nH]3)c3ncn(-c4cc(N5CCNCC5)nc5ccccc45)c3c2)ccn1	PI3Kβ (Homo sapiens (Human), UniProt P42338)	8.00
Cc1nc2c(-c3nnc[nH]3)cc(-c3ccncc3)cc2n1-c1ccnc2c(F)ccc(F)c12 (single isomer, unassigned) [Example 140]	PI3Kβ (Homo sapiens (Human), UniProt P42338)	6.27
Nc1cc(-c2cc(-c3nnc[nH]3)c3nc(C4CC4)n(-c4ccnc5c(Cl)ccc(F)c45)c3c2)ccn1	PI3Kβ (Homo sapiens (Human), UniProt P42338)	8.10
